This collection of values is drawn from patent US12624112.

# target or system: T1, ST2 on the effector cells (KU812, KU812/NF-κB-1#, HUVEC, HMC-1) (human, UniProt Q01638 19-556)
# T1 sequence (looked up): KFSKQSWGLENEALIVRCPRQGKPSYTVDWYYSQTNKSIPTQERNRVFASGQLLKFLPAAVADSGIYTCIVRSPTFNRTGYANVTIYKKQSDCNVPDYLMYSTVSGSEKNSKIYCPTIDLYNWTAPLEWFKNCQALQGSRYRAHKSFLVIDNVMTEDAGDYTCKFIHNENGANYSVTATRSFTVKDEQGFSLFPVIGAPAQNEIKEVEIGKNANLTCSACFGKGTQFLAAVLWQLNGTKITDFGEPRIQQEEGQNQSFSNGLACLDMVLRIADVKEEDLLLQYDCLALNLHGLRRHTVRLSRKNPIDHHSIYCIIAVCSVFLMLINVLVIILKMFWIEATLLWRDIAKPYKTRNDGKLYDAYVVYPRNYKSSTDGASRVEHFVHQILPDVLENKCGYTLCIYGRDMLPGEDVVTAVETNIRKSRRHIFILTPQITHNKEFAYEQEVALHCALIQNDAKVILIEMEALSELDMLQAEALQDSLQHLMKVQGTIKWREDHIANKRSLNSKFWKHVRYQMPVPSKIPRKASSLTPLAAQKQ
# test details: cell-based or functional assay
endpoint name: Relative activity compared with CNTO7160, KU812-IL5 production by IL-33 (%)
Write the number in % without appending the unit.

- binder: "5888-153-H0L1 (antibody, human IgG4 S228P, kappa, V domains shown, Humanized antibody) VH: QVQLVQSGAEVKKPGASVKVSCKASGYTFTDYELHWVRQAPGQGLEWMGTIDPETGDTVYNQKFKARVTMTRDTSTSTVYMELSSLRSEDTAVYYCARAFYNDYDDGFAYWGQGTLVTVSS VL: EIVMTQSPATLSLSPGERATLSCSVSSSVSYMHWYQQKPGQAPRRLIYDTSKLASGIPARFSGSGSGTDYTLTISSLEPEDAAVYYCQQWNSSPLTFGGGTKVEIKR"
  experimental result: 201
- binder: "5888-379-H2L2 (antibody, human IgG4 S228P, kappa, V domains shown, Humanized antibody) VH: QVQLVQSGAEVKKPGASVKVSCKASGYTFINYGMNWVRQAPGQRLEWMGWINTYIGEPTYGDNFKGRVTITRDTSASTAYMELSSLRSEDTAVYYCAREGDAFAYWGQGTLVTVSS VL: DIVMTQSPDSLAVSLGERATINCKSSQSLLYSGNQNNYLAWYQQKPGQPPKLLIYGASTRESGVPDRFSGSGSGTDFTLTISSLQAEDVAVYYCQNDHSYPYTFGGGTKVEIKR"
  experimental result: 107
- binder: "5888-379-H2L1 (antibody, human IgG4 S228P, kappa, V domains shown, Humanized antibody) VH: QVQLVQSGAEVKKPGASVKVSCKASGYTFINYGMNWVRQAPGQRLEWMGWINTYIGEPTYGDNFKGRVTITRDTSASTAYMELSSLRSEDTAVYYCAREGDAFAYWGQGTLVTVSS VL: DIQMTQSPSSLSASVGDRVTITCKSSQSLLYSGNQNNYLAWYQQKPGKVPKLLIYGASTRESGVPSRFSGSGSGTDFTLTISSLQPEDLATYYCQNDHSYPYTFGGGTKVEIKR"
  experimental result: 121
- binder: "5886-156-H1L0 (antibody, human IgG4 S228P, kappa, V domains shown, Humanized antibody expressed in CHO-K1, purified by protein A) VH: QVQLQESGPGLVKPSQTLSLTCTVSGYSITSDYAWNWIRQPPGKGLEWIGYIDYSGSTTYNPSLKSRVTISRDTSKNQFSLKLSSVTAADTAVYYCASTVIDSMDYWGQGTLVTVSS VL: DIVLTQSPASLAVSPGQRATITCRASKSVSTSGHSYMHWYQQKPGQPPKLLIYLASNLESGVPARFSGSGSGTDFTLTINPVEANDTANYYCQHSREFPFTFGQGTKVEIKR"
  experimental result: 181
- binder: "5888-153-H3L2 (antibody, human IgG4 S228P, kappa, V domains shown, Humanized antibody) VH: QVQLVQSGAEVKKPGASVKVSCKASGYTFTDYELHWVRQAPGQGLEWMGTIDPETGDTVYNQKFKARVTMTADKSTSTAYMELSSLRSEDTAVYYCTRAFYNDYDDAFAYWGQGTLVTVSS VL: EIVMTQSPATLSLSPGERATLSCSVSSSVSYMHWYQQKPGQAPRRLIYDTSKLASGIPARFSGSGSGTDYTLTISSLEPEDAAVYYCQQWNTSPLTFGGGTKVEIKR"
  experimental result: 142
- binder: "5888-153-H3L1 (antibody, human IgG4 S228P, kappa, V domains shown, Humanized antibody) VH: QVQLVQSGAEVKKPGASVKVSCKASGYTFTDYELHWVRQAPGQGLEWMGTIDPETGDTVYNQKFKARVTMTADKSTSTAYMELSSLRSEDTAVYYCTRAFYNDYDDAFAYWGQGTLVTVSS VL: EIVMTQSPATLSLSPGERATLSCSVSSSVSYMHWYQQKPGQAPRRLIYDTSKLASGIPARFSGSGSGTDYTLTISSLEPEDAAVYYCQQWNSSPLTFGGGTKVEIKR"
  experimental result: 742
- binder: "5888-116-H0L1 (antibody, human IgG4 S228P, kappa, V domains shown, Humanized antibody) VH: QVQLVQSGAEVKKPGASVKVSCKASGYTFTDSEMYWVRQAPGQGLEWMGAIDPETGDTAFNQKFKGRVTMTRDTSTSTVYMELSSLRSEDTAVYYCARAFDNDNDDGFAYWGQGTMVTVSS VL: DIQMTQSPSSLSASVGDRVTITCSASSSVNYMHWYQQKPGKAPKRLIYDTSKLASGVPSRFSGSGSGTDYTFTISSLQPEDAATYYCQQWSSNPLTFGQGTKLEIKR"
  experimental result: 656
- binder: "5886-156-H1L1 (antibody, human IgG4 S228P, kappa, V domains shown, Humanized antibody) VH: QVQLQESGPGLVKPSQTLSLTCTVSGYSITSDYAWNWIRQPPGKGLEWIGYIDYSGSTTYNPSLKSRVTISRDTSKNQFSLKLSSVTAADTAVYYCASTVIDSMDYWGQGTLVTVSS VL: DIVLTQSPASLAVSPGQRATITCRASKSVSTSGHSYMHWYQQKPGQPPKLLIYLASNLESGVPARFSGSGSGTDFTLTINPVEANDAANYYCQHSREFPFTFGQGTKVEIKR"
  experimental result: 222
- binder: "5888-379-H1L0 (antibody, human IgG4 S228P, kappa, V domains shown, Humanized antibody) VH: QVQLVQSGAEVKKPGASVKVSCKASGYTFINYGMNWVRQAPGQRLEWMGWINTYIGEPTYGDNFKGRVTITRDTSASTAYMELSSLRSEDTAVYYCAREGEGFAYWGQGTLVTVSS VL: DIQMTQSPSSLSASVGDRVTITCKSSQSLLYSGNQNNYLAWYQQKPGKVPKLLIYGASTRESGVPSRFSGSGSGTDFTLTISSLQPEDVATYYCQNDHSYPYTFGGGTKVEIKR"
  experimental result: 131

// switching to the query binder
IN: Any idea what its Relative activity compared with CNTO7160, KU812-IL5 production by IL-33 is? The binder is 5887-41-H1L0 (antibody, human IgG4 S228P, kappa, V domains shown, Humanized antibody) VH: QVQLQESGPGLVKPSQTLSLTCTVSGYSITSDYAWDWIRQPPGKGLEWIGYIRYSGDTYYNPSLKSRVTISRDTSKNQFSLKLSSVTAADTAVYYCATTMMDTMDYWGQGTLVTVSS VL: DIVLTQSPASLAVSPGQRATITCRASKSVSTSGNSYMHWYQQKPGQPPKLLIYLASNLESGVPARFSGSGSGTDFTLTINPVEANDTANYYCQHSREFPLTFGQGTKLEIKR
OUT: 91.7
